Provenance of the data: patent US10369131B2

Molecular target: CB1 receptor (Homo sapiens, UniProt P21554)
Sequence (P21554 whole entry): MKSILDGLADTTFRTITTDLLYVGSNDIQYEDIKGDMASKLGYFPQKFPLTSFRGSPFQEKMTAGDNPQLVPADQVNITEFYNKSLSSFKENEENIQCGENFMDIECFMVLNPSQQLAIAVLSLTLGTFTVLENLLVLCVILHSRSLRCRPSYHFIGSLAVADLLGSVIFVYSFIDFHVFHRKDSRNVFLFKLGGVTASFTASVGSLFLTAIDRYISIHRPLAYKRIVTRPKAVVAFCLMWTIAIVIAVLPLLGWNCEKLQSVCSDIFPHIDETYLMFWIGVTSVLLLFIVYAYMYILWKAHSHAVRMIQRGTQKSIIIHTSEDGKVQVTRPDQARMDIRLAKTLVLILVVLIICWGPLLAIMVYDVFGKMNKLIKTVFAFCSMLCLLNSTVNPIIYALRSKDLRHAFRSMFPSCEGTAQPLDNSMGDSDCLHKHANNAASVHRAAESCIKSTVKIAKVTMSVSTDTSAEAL
Assay: biochemical
Settings: hCB1 EC50 Rep 2, GTP-γ-35S turnover, replicate 2
pEC50: −log10 of the molar value.

>  <SMILES_REPR>
CCCCCCC(C)(C)c1cc(O)c2c(c1)OC(C)(C)[C@@H]1CC=C(C(=O)O)C[C@@H]21

>  <pEC50>
5.23

$$$$
